Condition Context: buffer; pH 7.4; 200.0 µM
This listing pairs molecules with measured solubility kinetic.

# Molecule, Reading Qualifier, solubility kinetic / µg/mL
data = [
    ("COC(=O)C(C)Nc1cccc(Br)c1 (centres undefined)", "=", 21.8),
    ("COC(=O)c1ccc(CNC(=O)CSc2nc3ccccc3[nH]2)cc1", "=", 11.6),
    ("COc1ccc(CNC(=S)Nc2ccccc2F)cc1", "=", 34),
    ("O=c1[nH][nH]c2ccccc2c1=O", ">", 24.3),
    ("Cc1ccc(Oc2ccc(NS(=O)(=O)c3cccc(C(=O)O)c3)cc2)cc1", "=", 57.2),
    ("CC(=O)c1cccc(N=Cc2c(O)ccc3ccccc23)c1", "=", 2.3),
    ("Cc1cc(C)c(NC(=O)C2CCCO2)c(C)c1NC(=O)C1CCCO1 (centres undefined)", ">", 52),
    ("CC1(c2ccc(Cl)cc2)NC(=O)N(CC(=O)NC2CCCCC2)C1=O (centres undefined)", ">", 54.6),
    ("CC(=O)c1ccc(S(=O)(=O)N2CCNC(=O)C2)cc1", ">", 42.3),
    ("O=C(COC(=O)Cc1ccc(Br)cc1)Nc1ccc(Cl)cn1", "=", 3.9),
    ("COc1ccc(CC(=O)N2CCN=C2SC)cc1OC", ">", 44.2),
    ("COc1ccccc1NC(=O)c1ccc(NC(=O)COC(=O)c2cccnc2Cl)cc1", "=", 7.4),
    ("O=C(CCc1nc(-c2ccccc2)no1)Nc1cccnc1", ">", 44.1),
    ("Cc1cc(C)nc(N2CCC(C(=O)NCc3ccccc3F)CC2)n1", "=", 0.3),
    ("Cn1cccc/c1=N\\c1cccc[n+]1C.[I-]", ">", 49.1),
    ("COc1cccc(/C=C(\\C)C(=O)c2c(C)cc(C)[nH]c2=O)c1OC", ">", 49.1),
    ("ClC1(Cl)CC1CSc1nc2ccccc2[nH]1 (centres undefined)", "=", 39.8),
    ("CCC(C)c1ccccc1NC(=O)COC(=O)C1=NN(c2ccccc2)C(=O)CC1 (centres undefined)", ">", 61.1),
    ("O=S(=O)(Cc1noc(-c2ccccc2Cl)n1)c1ccccn1", "=", 37.2),
    ("Cl.O=C(/C=C/c1cccc(F)c1)NCCCn1ccnc1", ">", 46.5),
    ("O=S(=O)(Nc1cccc2ccccc12)c1ccccc1F", "=", 1.5),
    ("O=C(/C=C/c1c(F)cccc1Cl)Nc1cccnc1", "=", 13.7),
    ("N#Cc1c(Nc2ccccc2C(F)(F)F)s[nH]c1=O", ">", 42.8),
    ("O=C1Nc2ccccc2C1=Nc1cccc(Cl)c1", "=", 28.2),
    ("O=c1c(Cc2c(F)cccc2Cl)c(O)ccn1C1CCCCCC1", "<", 0.7),
    ("Cc1cccc(NC(=O)c2ccc(-c3ccccc3[N+](=O)[O-])o2)c1", "=", 12.8),
    ("Cc1ccc(S(=O)(=O)N(C)CC(=O)N2CCCCCC2)cc1", "=", 48.4),
    ("CC(=O)Nc1cccc(OCC(=O)Nc2sccc2C(N)=O)c1", "=", 4.9),
    ("COc1ccc(CNCc2cccn2C)cc1.Cl", ">", 40),
    ("Cc1cc(=O)oc(C)c1C(=O)NC1CCCCCCC1", "=", 11.8),
    ("Cc1cccc(NC(=O)Nc2ccccc2[N+](=O)[O-])n1", "=", 0.3),
    ("CS(=O)(=O)c1ccc(NCC2CCCO2)c([N+](=O)[O-])c1 (centres undefined)", ">", 45),
    ("CCC(CC)C(=O)Nc1ccncc1", "=", 10.9),
    ("O=[N+]([O-])c1cccc(-c2ccc(CN3CCCCC3)o2)c1", "=", 30.5),
    ("O=[N+]([O-])c1cccc2c(N3CCCC3)ccnc12", ">", 36.5),
    ("COc1ccc(C/C(N)=N/OC(=O)c2cccs2)cc1", "=", 7.5),
    ("O=C(O)C1CCCN(S(=O)(=O)c2ccc(Br)s2)C1 (centres undefined)", "=", 52.1),
    ("O=C(c1cccnc1)c1ncc(C(F)(F)F)cc1Cl", "=", 35.7),
    ("O=C(Nc1ccc(CN2CCS(=O)(=O)CC2)cc1)c1ccccc1", "=", 31.4),
    ("Nc1cc(C(=O)OCC(=O)N2CCOCC2)ccc1Cl", ">", 44.8),
    ("CCOC(=O)/C(=C\\c1ccc(OC)c(OC)c1)C(=O)c1cccnc1", ">", 51.2),
    ("COC(=O)c1cnc(Nc2cc(C)ccc2OC)c2ccccc12", "=", 0.7),
    ("CC1Oc2ccccc2N(CC(=O)NC2CC2)C1=O (centres undefined)", ">", 39),
    ("Cc1ccc(NC(=O)CCS(=O)(=O)c2cccc3nonc23)cc1", "=", 18.1),
    ("CC(OC(=O)c1ccncc1)C(=O)Nc1cccc([N+](=O)[O-])c1 (centres undefined)", ">", 47.3),
    ("CC1NC(=O)NC1CCCCCC(=O)Nc1ccc(F)cc1 (centres undefined)", ">", 46.1),
    ("O=C(NCc1ccc2c(c1)OCO2)c1ccccc1", "=", 38),
    ("COC(=O)c1scc(C)c1NC(=O)c1cccc(C#N)c1", ">", 45),
    ("Cc1cccn2c(=O)nc(SCC(=O)NC3CCCCC3)nc12", ">", 49.9),
]
